src = ChEMBL document CHEMBL1687854

experimental-details: Clearance in healthy human at 500 mg, iv
Assay type: ADME, organism-based
measurement-conditions: in vivo, 500 mg
attribute-measured: clearance
Number first, unit second.

Problem: # get_value(readout='clearance', item= C[C@@H](O)[C@H]1C(=O)N2C(C(=O)O)=C(S[C@@H]3CN[C@H](CNS(N)(=O)=O)C3)[C@H](C)[C@H]12 )
Solution: 265 mL/min

###

experimental-details: Clearance in end stage renal disease patient undergoing 12 hours continuous venovenous hemodiafiltration at 500 mg, iv
Format: ADME, organism-based
measurement-conditions: human, in vivo, 500 mg
attribute-measured: clearance (mL/min)
Kindly provide the numeric value in mL/min only, without the unit symbol.

Problem: # get_value(readout='clearance', item= C[C@@H](O)[C@H]1C(=O)N2C(C(=O)O)=C(S[C@@H]3CN[C@H](CNS(N)(=O)=O)C3)[C@H](C)[C@H]12 [DORIPENEM] )
Solution: 98.2
